Values from ChEMBL document CHEMBL5661979

TARGET_OF_ASSAY: UniProt:Q13418
ASSAY_SUMMARY: Inhibition of ILK in human HeLa cells lysate pre incubated for 15 mins followed by ATP acyl phosphate probe addition and measured after 10 mins by LC-MS/MS analysis
Format: subcellular
pIC50: −log10 of the molar value.
ASSAY_READOUT: pIC50

pIC50 in this record for CCOc1cc(N2CCC(O)CC2)ccc1Nc1ncc2c(n1)N(C)c1ccccc1C(=O)N2C : < 4.30

* * *

TARGET_OF_ASSAY: Tyrosine-protein kinase CSK (Homo sapiens)
Sequence (P41240 whole entry): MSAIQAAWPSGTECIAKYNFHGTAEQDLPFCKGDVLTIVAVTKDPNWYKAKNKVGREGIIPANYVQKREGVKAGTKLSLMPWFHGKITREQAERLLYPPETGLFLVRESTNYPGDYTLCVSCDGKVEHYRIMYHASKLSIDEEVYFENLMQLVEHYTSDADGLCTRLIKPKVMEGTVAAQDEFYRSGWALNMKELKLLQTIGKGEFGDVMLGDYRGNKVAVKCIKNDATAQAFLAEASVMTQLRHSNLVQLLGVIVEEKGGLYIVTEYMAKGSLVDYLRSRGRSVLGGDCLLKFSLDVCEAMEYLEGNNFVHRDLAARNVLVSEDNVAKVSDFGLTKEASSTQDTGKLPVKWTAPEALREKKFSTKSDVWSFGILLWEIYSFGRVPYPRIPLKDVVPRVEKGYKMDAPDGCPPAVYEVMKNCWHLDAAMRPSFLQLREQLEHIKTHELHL
ASSAY_SUMMARY: Inhibition of CSK in human HeLa cells lysate pre incubated for 15 mins followed by ATP acyl phosphate probe addition and measured after 10 mins by LC-MS/MS analysis
Format: subcellular
pIC50: −log10 of the molar value.
ASSAY_READOUT: pIC50

pIC50 in this record for CCOc1cc(N2CCC(O)CC2)ccc1Nc1ncc2c(n1)N(C)c1ccccc1C(=O)N2C : < 4.30

* * *

TARGET_OF_ASSAY: Serine/threonine-protein kinase Nek7 (Homo sapiens)
Sequence (Q8TDX7 whole entry): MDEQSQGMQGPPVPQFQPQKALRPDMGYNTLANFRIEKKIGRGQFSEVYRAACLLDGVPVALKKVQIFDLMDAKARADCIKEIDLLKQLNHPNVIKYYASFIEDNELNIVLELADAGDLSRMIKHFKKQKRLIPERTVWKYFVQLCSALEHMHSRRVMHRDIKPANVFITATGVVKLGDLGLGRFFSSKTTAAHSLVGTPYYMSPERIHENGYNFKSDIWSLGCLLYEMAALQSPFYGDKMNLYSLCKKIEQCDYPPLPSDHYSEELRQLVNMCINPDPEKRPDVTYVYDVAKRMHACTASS
ASSAY_SUMMARY: Inhibition of NEK7 in human HeLa cells lysate pre incubated for 15 mins followed by ADP acyl phosphate probe addition and measured after 10 mins by LC-MS/MS analysis
Format: subcellular
ASSAY_READOUT: IC50

IC50 in this record for CCOc1cc(N2CCC(O)CC2)ccc1Nc1ncc2c(n1)N(C)c1ccccc1C(=O)N2C : > 50 µM

* * *

TARGET_OF_ASSAY: Non-receptor tyrosine-protein kinase TNK1 (Homo sapiens)
ASSAY_SUMMARY: Inhibition of TNK1 in human HeLa cells lysate pre incubated for 15 mins followed by ADP acyl phosphate probe addition and measured after 10 mins by LC-MS/MS analysis
ASSAY_READOUT: IC50 (µM)
One number for each entry, in µM.

IC50 in this record for CCOc1cc(N2CCC(O)CC2)ccc1Nc1ncc2c(n1)N(C)c1ccccc1C(=O)N2C : 10

* * *

TARGET_OF_ASSAY: 5'-AMP-activated protein kinase catalytic subunit alpha-1 (Homo sapiens, UniProt Q13131)
Sequence (Q13131 whole entry): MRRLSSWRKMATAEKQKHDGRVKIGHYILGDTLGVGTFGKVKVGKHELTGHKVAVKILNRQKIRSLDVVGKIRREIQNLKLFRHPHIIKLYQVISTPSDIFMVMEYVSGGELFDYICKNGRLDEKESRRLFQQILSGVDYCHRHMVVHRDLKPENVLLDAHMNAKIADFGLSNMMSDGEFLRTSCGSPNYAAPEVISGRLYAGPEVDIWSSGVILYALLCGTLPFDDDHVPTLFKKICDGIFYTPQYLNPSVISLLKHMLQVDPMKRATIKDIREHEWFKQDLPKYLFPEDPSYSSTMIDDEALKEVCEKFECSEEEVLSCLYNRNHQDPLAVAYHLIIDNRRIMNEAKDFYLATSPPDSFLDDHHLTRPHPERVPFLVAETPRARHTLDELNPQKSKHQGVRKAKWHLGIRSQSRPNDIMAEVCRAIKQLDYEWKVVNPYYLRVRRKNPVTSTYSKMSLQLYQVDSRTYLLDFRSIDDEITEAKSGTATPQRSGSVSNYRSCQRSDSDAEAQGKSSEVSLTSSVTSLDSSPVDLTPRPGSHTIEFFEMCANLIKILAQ
ASSAY_SUMMARY: Inhibition of AMPKalpha1 in human HeLa cells lysate pre incubated for 15 mins followed by ADP acyl phosphate probe addition and measured after 10 mins by LC-MS/MS analysis
pIC50: −log10 of the molar value.
ASSAY_READOUT: pIC50

pIC50 in this record for CCOc1cc(N2CCC(O)CC2)ccc1Nc1ncc2c(n1)N(C)c1ccccc1C(=O)N2C : < 4.30

* * *

TARGET_OF_ASSAY: Serine/threonine-protein kinase SMG1 (Homo sapiens)
Sequence (Q96Q15 whole entry): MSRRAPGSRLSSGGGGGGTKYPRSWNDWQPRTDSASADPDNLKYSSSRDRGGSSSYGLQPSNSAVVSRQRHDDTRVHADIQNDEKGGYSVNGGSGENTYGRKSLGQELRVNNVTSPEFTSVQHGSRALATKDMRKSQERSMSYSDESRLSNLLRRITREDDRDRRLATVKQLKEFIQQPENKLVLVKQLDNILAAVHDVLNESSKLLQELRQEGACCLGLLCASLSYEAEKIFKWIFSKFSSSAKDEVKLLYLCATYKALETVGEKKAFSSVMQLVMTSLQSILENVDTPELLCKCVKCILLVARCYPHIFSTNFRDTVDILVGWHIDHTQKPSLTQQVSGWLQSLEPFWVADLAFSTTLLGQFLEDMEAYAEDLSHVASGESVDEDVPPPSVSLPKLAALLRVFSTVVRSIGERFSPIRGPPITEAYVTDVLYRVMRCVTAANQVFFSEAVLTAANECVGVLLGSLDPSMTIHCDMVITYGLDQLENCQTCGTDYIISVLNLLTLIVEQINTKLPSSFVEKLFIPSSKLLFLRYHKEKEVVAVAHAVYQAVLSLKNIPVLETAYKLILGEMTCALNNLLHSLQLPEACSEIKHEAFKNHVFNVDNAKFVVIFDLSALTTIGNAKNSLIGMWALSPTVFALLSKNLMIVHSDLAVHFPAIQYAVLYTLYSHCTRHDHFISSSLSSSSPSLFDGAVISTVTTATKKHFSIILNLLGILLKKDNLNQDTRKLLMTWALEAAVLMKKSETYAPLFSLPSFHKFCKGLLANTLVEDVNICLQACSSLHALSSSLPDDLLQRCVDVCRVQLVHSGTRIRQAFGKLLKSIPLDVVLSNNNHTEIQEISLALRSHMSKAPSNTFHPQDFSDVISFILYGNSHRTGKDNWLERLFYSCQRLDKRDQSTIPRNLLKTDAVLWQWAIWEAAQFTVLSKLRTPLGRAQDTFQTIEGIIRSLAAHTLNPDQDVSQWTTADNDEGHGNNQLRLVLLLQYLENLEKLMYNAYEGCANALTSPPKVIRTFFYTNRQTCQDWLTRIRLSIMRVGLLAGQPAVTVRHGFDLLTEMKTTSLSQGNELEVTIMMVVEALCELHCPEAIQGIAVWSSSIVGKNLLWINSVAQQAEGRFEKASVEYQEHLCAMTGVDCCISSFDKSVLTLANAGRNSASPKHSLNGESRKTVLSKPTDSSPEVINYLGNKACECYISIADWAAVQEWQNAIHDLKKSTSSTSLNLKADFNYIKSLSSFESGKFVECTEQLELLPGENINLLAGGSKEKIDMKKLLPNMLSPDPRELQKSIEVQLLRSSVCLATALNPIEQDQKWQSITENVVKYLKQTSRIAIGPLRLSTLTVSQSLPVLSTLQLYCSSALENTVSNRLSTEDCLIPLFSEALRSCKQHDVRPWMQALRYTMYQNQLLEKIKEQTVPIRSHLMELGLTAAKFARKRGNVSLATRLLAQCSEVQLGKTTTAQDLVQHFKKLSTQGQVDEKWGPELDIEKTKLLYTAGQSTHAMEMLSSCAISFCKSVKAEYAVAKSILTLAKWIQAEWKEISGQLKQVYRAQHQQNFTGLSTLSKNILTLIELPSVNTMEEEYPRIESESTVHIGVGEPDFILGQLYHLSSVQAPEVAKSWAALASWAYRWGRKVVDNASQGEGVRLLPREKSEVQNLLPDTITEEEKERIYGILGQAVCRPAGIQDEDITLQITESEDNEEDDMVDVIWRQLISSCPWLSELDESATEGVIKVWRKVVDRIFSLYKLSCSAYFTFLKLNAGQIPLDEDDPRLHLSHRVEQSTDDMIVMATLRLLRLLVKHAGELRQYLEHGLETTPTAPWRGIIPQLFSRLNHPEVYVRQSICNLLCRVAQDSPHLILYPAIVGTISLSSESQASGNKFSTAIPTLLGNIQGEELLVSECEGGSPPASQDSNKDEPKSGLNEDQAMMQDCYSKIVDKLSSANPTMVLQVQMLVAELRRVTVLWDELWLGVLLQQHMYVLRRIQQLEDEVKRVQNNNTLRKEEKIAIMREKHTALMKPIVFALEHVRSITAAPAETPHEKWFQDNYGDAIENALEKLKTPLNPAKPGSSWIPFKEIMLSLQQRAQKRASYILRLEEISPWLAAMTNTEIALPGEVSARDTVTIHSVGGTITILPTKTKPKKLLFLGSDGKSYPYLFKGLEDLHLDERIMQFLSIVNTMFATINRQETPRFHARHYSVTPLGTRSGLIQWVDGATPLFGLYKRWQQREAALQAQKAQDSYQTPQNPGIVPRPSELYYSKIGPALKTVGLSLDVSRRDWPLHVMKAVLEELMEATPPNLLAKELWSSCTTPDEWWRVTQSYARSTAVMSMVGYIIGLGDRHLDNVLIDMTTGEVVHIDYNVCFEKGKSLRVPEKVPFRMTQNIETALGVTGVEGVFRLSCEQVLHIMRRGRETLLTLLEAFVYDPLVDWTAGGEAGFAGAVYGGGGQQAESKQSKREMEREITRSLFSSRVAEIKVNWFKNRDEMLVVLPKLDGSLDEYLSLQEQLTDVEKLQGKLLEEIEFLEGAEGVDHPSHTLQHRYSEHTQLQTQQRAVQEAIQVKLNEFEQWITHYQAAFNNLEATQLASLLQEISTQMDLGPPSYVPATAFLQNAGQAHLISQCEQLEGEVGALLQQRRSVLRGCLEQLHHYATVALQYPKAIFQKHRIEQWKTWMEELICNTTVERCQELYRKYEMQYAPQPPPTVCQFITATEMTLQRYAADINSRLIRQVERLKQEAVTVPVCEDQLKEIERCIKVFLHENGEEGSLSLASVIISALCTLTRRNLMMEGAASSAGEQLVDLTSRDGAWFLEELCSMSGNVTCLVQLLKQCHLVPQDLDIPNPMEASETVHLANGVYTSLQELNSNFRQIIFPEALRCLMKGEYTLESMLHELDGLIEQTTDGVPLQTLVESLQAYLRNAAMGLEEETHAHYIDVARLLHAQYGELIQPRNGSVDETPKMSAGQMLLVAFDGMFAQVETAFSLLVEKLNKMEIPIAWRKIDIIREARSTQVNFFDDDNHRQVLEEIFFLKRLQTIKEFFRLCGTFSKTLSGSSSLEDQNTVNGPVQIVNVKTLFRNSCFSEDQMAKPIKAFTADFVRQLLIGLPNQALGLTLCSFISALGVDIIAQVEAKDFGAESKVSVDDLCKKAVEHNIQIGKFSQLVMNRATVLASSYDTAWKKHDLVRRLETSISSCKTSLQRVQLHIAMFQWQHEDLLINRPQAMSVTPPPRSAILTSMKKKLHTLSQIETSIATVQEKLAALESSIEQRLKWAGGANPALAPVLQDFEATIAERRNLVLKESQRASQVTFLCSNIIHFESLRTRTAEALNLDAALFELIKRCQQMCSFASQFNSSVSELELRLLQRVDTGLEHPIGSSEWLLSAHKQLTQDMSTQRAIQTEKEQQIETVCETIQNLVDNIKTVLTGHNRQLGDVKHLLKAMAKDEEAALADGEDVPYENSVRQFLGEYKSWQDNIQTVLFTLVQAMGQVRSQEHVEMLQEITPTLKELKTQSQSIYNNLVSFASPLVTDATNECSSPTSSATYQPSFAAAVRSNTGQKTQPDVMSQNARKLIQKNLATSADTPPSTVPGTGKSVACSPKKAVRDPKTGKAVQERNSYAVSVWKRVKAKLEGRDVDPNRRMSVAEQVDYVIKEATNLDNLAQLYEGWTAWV
ASSAY_SUMMARY: Inhibition of SMG1 in human HeLa cells lysate pre incubated for 15 mins followed by ATP acyl phosphate probe addition and measured after 10 mins by LC-MS/MS analysis
pIC50: −log10 of the molar value.
ASSAY_READOUT: pIC50

pIC50 for Serine/threonine-protein kinase SMG1 (Homo sapiens) with input CCOc1cc(N2CCC(O)CC2)ccc1Nc1ncc2c(n1)N(C)c1ccccc1C(=O)N2C equals < 4.30

* * *

TARGET_OF_ASSAY: Serine/threonine-protein kinase Sgk1 (Homo sapiens, UniProt O00141)
Sequence (O00141 whole entry): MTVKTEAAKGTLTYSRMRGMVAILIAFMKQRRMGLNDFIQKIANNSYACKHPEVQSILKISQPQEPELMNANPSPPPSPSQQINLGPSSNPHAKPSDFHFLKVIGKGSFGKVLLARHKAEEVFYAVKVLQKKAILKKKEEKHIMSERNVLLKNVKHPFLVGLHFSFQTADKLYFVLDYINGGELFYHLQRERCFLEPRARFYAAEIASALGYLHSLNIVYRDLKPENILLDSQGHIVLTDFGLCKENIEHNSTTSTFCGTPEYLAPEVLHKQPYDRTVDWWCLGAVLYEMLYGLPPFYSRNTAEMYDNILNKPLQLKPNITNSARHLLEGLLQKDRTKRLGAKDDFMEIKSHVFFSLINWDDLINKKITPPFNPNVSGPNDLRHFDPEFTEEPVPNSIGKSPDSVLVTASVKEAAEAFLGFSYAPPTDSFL
ASSAY_SUMMARY: Inhibition of SGK1 in human HeLa cells lysate pre incubated for 15 mins followed by ADP acyl phosphate probe addition and measured after 10 mins by LC-MS/MS analysis
pIC50: −log10 of the molar value.
ASSAY_READOUT: pIC50

pIC50 in this record for CCOc1cc(N2CCC(O)CC2)ccc1Nc1ncc2c(n1)N(C)c1ccccc1C(=O)N2C : < 4.30
